What pIC50 was measured for each of the following?
- SYSTEM: various mutants of kinase EGFR (BaF3 cell lines stably transfected with kinase) (Homo sapiens, UniProt P00533, T790M/C797S, form not given)
- Construct: other: BaF3 cells stably transfected with EGFR Δ19Del/T790M/C797S; MTS, 48; other: BaF3 cell line stably transfected with EGFR Δ19Del/T790M/C7
- Sequence (P00533 with tags, fused parts or gaps DEL746-750/T790M/C797S, form open): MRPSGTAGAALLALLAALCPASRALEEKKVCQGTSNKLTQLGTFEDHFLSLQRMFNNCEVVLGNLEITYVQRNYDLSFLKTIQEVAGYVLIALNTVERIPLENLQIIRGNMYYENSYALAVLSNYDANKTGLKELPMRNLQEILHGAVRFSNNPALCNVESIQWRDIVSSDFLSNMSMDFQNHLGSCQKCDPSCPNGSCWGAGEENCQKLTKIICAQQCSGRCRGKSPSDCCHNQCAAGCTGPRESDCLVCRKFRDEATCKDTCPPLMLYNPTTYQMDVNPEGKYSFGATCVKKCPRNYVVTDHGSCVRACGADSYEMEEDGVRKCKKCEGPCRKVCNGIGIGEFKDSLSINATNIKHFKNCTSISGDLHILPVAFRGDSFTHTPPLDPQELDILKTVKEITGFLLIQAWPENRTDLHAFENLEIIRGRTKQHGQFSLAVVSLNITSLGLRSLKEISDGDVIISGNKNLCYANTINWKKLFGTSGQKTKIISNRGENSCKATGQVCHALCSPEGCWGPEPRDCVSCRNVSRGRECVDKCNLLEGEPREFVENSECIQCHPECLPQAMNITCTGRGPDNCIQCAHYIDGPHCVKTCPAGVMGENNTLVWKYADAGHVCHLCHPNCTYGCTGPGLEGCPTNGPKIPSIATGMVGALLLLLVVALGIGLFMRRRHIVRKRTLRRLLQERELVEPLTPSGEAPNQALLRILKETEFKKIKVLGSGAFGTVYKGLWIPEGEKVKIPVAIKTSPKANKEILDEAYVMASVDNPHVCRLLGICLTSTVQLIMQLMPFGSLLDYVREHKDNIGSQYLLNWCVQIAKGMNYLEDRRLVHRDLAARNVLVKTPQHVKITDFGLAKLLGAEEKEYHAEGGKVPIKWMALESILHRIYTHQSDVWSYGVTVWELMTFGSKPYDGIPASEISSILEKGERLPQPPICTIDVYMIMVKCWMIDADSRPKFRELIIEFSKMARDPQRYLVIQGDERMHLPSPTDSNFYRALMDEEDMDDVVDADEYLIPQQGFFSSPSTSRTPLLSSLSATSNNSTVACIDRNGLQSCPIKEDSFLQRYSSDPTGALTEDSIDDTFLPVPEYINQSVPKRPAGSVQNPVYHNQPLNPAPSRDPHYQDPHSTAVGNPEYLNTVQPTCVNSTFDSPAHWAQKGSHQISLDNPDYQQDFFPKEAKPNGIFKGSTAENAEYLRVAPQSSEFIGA
- EXPERIMENTAL_PROTOCOL: Growth inhibitory activity of compounds on BaF3 cell lines stably transfected with kinase (MTS, 48 h)
- Format: cell-based
- APPLIED_CONDITIONS: BaF3 cells stably transfected with EGFR Δ19Del/T790M/C797S, read-out: IC50, growth inhibition, Δ19Del/T790M/C797S
pIC50: −log10 of the molar value.

| COMPOUND | pIC50 |
| --- | --- |
| C=Cc1cc(Nc2ncc(Br)c(Nc3ccc4nccnc4c3N(C)S(=O)(=O)C(F)(F)F)n2)c(OC(F)(F)F)cc1N1CCC(N2CCN(C)CC2)CC1 | ≥ 7.30 |

Please report pIC50 for every entry that follows.
1. CCc1cc(Nc2ncc(OC)c(Nc3ccc4nccnc4c3N(C)S(C)(=O)=O)n2)c(OC(F)(F)F)cc1N1CCC(N2CCN(C)CC2)CC1
2. COc1cc(N2CCC(N3CCN(C)CC3)CC2)c(C(C)C)cc1Nc1ncc(C2CC2)c(Nc2ccc3nccnc3c2N(C)S(C)(=O)=O)n1

≥ 7.30
6.30 to 7.30

Please report pIC50 for every entry that follows.
1. CCc1cc(Nc2ncc(Cl)c(Nc3ccc4nccnc4c3N(C)S(=O)(=O)C3CC3)n2)c(OC)cc1N1CCC(N(C)C)C1 (stereo not drawn)
2. COc1nc(N2CCC(N3CCN(C)CC3)CC2)c(C)cc1Nc1ncc(Cl)c(Nc2ccc3nccnc3c2N(C2CC2)S(C)(=O)=O)n1
3. CCN(c1c(Nc2nc(Nc3cc(C)c(N4CCN(C)CC4)cc3OC)ncc2Br)ccc2nccnc12)S(C)(=O)=O

1: ≥ 7.30; 2: 5.60 to 6.30; 3: ≥ 7.30

* * *

- SYSTEM: various mutants of kinase EGFR (BaF3 cell lines stably transfected with kinase) (Homo sapiens, UniProt P00533, L858R)
- Construct: expressed in transfected cells; host or cells: BaF3
- Sequence (P00533 25-1210 L858R): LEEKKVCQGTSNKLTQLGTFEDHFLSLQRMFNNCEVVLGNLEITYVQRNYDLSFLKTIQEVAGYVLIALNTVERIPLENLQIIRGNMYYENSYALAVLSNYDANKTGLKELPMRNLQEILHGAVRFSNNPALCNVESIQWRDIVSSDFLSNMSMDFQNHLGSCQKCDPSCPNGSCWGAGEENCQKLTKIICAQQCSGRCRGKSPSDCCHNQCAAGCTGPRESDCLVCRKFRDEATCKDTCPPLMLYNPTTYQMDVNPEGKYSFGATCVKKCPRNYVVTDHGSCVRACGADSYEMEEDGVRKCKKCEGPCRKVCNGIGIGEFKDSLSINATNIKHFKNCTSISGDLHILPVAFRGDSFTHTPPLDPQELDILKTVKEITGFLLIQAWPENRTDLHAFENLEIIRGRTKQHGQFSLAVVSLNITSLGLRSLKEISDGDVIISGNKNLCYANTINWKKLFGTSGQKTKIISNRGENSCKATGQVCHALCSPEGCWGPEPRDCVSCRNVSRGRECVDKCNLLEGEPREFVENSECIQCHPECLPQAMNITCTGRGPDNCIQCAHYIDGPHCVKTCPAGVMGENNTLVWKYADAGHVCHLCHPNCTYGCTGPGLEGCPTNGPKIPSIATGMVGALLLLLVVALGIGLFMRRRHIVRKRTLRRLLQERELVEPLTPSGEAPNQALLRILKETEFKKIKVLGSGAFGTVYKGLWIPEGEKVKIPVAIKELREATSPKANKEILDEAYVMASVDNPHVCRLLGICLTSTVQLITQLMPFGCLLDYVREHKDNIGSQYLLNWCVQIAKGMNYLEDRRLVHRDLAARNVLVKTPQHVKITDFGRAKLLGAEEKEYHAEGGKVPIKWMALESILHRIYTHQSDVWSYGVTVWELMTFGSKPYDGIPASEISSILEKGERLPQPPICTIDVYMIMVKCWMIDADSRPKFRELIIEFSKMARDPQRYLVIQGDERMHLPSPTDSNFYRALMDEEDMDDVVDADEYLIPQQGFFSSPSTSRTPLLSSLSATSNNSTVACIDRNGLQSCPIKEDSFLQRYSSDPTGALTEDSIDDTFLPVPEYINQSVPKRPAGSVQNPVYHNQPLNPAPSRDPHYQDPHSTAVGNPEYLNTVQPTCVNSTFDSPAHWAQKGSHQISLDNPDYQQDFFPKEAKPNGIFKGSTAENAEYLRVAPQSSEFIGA
- EXPERIMENTAL_PROTOCOL: Growth inhibitory activity of compounds on BaF3 cell lines stably transfected with kinase (MTS, 48 h)
- Format: cell-based
- APPLIED_CONDITIONS: BaF3 cells stably transfected with EGFR L858R, read-out: IC50, growth inhibition, L858R
What IC50 was measured for each of the following?

| SAMPLE_SMILES | MEASUREMENT |
| --- | --- |
| CN1CCN(C2CCN(c3cccc(Nc4ncc(Br)c(Nc5ccc6nccnc6c5N(C)S(C)(=O)=O)n4)c3)CC2)CC1 | 0.05 to 0.5 µM |
| CCN(c1c(Nc2nc(Nc3cc(CC4CC4)c(N4CCC(N5CCN(C)CC5)CC4)cc3OC)ncc2Cl)ccc2nccnc12)S(C)(=O)=O | 0.05 to 0.5 µM |
| COc1cc(N2CCC(N(C)C)CC2)c(C)cc1Nc1ncc(C(F)(F)F)c(Nc2ccc3nccnc3c2N(C)S(C)(=O)=O)n1 | ≤ 0.05 µM |
| CCN(c1c(Nc2nc(Nc3cc(C)c(N4CCC(N5CCN(C)CC5)CC4)cc3OC)ncc2Br)ccc2nccnc12)S(C)(=O)=O | ≤ 0.05 µM |
| CCc1cc(Nc2ncc(C)c(Nc3ccc4nccnc4c3N(C)S(C)(=O)=O)n2)c(OC)cc1N1CCC(N(C)C)CC1 | ≤ 0.05 µM |

Respond only with IC50 recorded for CCc1cc(Nc2ncc(Cl)c(Nc3ccc4nccnc4c3N(C)S(=O)(=O)C(C)C)n2)c(OC)cc1N1CCN(C)CC1 0.05 to 0.5 µM

All figures here come from patent US20230310428A1.
